Molecular target: T1, Human CD93 on cells (human CD93 expressing CHO cells; HUVEC, U937 and KG1a cells) (human, UniProt Q9NPY3 22-652)
T1 construct: whole, on cells; also called hCD93 expressing CHO cells; hCD93 CHO cells
T1 sequence (looked up): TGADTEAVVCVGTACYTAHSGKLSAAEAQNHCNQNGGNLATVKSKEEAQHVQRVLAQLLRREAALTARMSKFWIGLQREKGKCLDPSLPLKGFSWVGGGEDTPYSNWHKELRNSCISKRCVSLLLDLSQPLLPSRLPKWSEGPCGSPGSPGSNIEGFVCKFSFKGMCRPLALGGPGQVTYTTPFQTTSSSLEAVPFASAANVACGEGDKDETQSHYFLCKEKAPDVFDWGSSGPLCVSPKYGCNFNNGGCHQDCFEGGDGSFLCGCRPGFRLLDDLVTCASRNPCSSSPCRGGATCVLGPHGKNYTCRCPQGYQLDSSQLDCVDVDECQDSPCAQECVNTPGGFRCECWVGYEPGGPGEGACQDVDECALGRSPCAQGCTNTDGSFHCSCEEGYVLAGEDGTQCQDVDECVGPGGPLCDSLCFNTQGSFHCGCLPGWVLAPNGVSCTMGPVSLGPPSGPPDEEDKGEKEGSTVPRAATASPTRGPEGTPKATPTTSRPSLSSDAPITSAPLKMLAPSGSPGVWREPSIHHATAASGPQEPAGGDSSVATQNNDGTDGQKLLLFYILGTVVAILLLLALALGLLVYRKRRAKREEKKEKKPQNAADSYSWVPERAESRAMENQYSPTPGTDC
Experiment: flow cytometry, CHO cells overexpressing human CD93, antibody 0.01ug, mIgG1 as control, APC-A
experimental_readout: M2 gate, % of cells (%)
Write down the numeric answer in % and omit the unit.

binder	M2 gate, % of cells, %
humanized 17B10 H1L1 (antibody, mouse IgG1, V domains shown, Chimeric Fc: human CH1, mouse IgG1 CH2 and CH3) VH: QVQLVQSGAEVKKPGSSVKVSCKASGYAFSSYWLNWVRQAPGQGLEWFGRIYPGDGDTDYNGKFKGRVTLTADKSTSTAYMELSSLRSEDTAVYFCVRGDGYWAMDYWGQGTTVTVSS VL: DIVMTQSPLSLPVTPGEPASISCRFSQSLLHSNGITYLYWYLQKPGQSPQLLIYQMSNLASGVPDRFSGSGSGTDFTLKISRVEAEDVGVYYCAQNLELPWTFGGGTKLEIK	99
humanized 17B10 H2L3 (antibody, mouse IgG1, V domains shown, Chimeric Fc: human CH1, mouse IgG1 CH2 and CH3) VH: QVQLVQSGAEVVKSGASVKVSCKASGYAFSSYWLNWVRQAPGQGLEWFGRIYPGDGDTDYNGKFKGRVTLIRDTSTSTVYMELTSLTSEDTAVYYCVRGDGYWAMDYWGQGTLVTVSS VL: DIVMTQSPDSLAVSLGERATINCRFSKSLLHSNGITYLYWYQQKPGQPPKLLIYQMSNLASGVPDRFSGSGSGTDFTLTISSLQAEDVAVYYCAQNLELPWTFGGGTKLEIK	99.2
Recombinant parental 17B10 with a human CH1 domain and mouse IgG1 CH2 and CH3 Fc domains (antibody, V domains shown) VH: QVQLQQSGPELVKPGASVKISCKASGYAFSSYWLNWVKQRPGKGLEWFGRIYPGDGDTDYNGKFKGKATLTADKSSSTAYMQLRSLTSEDSAVYFCVRGDGYWAMDYWGQGTSVTVSS VL: DIVMTQAAFSNPVTLGTSASISCRFSKSLLHSNGITYLYWYLQKPGQSPQLLIYQMSNLASGVPDRFSSSGSGTDFTLRISRVEAEDVGVYYCAQNLELPWTFGGGTKLEIK	98.4
humanized 17B10 H1L2 (antibody, mouse IgG1, V domains shown, Chimeric Fc: human CH1, mouse IgG1 CH2 and CH3) VH: QVQLVQSGAEVKKPGSSVKVSCKASGYAFSSYWLNWVRQAPGQGLEWFGRIYPGDGDTDYNGKFKGRVTLTADKSTSTAYMELSSLRSEDTAVYFCVRGDGYWAMDYWGQGTTVTVSS VL: DIVMTQTPLSLPVTPGEPASISCRFSQSLLHSNGITYLYWYLQKPGQSPQLLIYTMSNLASGVPDRFSGSGSGTDFTLKISRVEAEDVGVYYCAQNLELPWTFGGGTKLEIK	92.1

// query M2 gate, % of cells value for entry humanized 17B10 H3L1 (antibody, mouse IgG1, V domains shown, Chimeric Fc: human CH1, mouse IgG1 CH2 and CH3) VH: QVQLVQSGPEVKKPGESLKISCKASGYAFSSYWLNWVRQMPGKGLEWMGRIYPGDGDTDYNGKFKGQVTISADKSSGTAYLQLSSLKASDTAVYFCVRGDGYWAMDYWGQGTLVTVSS VL: DIVMTQSPLSLPVTPGEPASISCRFSQSLLHSNGITYLYWYLQKPGQSPQLLIYQMSNLASGVPDRFSGSGSGTDFTLKISRVEAEDVGVYYCAQNLELPWTFGGGTKLEIK
99.5
